Quick reference for Cmax among some molecules
- assay explanation: Cmax in ICR mouse at 10 mg/kg,po measured upto 24 hrs
- Assay type: ADME, organism-based
- Set-up: time < 24 hrs, dose 10 mg/kg, route po
- experimental parameters: in vivo

- cpd smiles: "O=C(/C=C/c1ccc2c(c1)OC(F)(F)O2)N1CCN(C(=O)N2CCC2)CC1"
  Cmax: "4900 ng/mL"

In the following, a different molecule is considered.
Reported Cmax for COc1ncc(C(=O)N2CCN(C(=O)/C=C/c3ccc4c(c3)OC(F)(F)O4)CC2)cn1 : what is it?
5900 ng/mL

* * *

- assay explanation: Tmax in ICR mouse at 10 mg/kg,po measured upto 24 hrs
- Type: ADME, organism-based
- experimental parameters: in vivo
A collection of compounds and their measured Tmax
Provide the reading as a plain figure in min.

- cpd smiles: "O=C(/C=C/c1ccc2c(c1)OC(F)(F)O2)N1CCN(C(=O)N2CCC2)CC1"
  Tmax, min: 15

// next entry
For the compound shown here, COc1ncc(C(=O)N2CCN(C(=O)/C=C/c3ccc4c(c3)OC(F)(F)O4)CC2)cn1 , give the reported Tmax.
79.8
